Target: P97 (Homo sapiens (Human), UniProt P55072)
Sequence (P55072 whole entry): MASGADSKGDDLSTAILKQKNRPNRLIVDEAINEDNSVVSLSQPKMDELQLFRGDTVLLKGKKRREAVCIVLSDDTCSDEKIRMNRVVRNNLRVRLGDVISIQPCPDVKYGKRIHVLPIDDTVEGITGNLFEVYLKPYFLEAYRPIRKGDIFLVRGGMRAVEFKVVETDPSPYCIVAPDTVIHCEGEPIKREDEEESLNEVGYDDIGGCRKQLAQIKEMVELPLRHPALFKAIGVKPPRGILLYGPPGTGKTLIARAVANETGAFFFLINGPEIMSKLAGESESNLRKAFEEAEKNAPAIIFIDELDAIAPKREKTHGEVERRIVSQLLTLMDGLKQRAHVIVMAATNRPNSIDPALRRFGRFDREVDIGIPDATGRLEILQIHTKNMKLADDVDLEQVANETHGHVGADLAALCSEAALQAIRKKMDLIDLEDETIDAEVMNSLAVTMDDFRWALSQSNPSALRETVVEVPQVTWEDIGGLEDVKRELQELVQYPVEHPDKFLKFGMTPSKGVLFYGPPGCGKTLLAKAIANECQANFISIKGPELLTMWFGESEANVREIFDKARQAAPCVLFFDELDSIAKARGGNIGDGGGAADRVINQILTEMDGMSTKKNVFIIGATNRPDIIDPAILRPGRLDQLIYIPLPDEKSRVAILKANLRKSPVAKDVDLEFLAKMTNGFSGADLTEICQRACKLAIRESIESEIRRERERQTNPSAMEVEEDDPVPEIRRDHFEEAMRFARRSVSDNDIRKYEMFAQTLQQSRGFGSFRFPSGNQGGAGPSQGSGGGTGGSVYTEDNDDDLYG
Test: P97 Biomolgreen ATPase assay, 200 μM ATP
Assay type: biochemical
Settings: P97 Biomolgreen, IC50 (μM)
outcome measure: IC50 (µM)
Your answer is read as µM, so omit the unit and give the number.

Reported P97 (Homo sapiens (Human), UniProt P55072) IC50 for item [2H]C1([2H])C([2H])([2H])C([2H])([2H])C([2H])(Sc2nnc(COc3ccc(C#CCNCCN4CCN(C)CC4)c(C)c3)n2-c2cccnc2)C1([2H])[2H] was 0.17

// returns IC50 for [2H]C1([2H])C([2H])([2H])C([2H])([2H])C([2H])(Sc2nnc(COc3ccc(C#CCOC)c(C)c3)n2-c2cccnc2)C1([2H])[2H] with P97 (Homo sapiens (Human), UniProt P55072); value = 0.069

Considering [2H]C1([2H])C([2H])([2H])C([2H])([2H])C([2H])(Sc2nnc(COc3ccc(C#CCOC(=O)N4CCOCC4)c(C)c3)n2-c2cccnc2)C1([2H])[2H] , its IC50 with P97 (Homo sapiens (Human), UniProt P55072) was recorded as 0.044
